Tgt: TLR7 (Homo sapiens, UniProt Q9NYK1)
Sequence (Q9NYK1 27-1049): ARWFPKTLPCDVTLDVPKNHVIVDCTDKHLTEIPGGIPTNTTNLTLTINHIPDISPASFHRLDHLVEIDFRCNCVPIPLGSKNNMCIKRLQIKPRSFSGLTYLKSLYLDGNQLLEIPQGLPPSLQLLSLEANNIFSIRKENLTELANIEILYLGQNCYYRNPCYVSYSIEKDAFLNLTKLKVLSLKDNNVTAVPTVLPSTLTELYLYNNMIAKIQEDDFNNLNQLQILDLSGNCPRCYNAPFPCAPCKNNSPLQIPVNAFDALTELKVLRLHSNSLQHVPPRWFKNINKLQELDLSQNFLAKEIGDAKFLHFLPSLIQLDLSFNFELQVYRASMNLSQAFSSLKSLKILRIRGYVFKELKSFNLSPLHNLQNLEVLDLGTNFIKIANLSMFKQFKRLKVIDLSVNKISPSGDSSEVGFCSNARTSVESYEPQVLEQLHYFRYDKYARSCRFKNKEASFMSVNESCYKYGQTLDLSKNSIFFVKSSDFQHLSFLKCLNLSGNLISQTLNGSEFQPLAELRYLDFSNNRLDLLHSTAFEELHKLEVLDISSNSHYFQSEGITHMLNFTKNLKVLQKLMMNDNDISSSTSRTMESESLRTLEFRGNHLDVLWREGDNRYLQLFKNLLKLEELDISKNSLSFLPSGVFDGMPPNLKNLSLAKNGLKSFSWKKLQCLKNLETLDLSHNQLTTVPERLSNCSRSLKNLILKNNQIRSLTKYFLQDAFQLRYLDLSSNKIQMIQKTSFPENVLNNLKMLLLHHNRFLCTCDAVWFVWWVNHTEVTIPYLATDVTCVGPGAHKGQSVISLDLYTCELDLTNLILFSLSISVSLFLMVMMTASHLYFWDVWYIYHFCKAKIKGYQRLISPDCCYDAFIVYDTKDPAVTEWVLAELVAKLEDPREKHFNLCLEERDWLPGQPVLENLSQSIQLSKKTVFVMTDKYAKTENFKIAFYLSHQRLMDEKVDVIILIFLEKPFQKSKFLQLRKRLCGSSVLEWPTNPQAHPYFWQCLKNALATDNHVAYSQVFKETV
Test method notes: HEK/293 TLR7 Cell Assay
Test conditions: TLR7/NFKb HEK cells, R848 agonist 10 uM final concentration, Steady-Glo readout; read-out: TLR7 potency
Endpoint: IC50

Q: For the compound C[C@@H]1CN(c2ccc(C#N)c3nccnc23)C[C@H](C(=O)NCC2(F)CNC2)O1 , report IC50.
A: < 75 nM

Q: Give me measured IC50, please, for this compound: N#Cc1ccc(N2C[C@H](N)C[C@H](C(F)(F)F)C2)c2ccc(=O)[nH]c12
A: > 150 nM

Q: Quick one: give measured IC50 for CCS(=O)(=O)NCCN[C@@H]1C[C@H](C)CN(c2ccc(C(F)(F)F)c3nccnc23)C1
A: 75 to 150 nM

###

Tgt: TLR7 (Homo sapiens, UniProt Q9NYK1)
Test method notes: HEK/293 TLR7 Cell Assay
Test conditions: TLR7/NFKb HEK cells, R848 agonist 10 uM final concentration, Steady-Glo readout; read-out: TLR7 potency
Catalogue of compounds with associated IC50

C[C@@H]1CN(c2cnc(C#N)c3ncccc23)C[C@H](C(=O)NC2CCN(CC3CC3)C2)O1 (some centres unmarked) [Example 272]
< 75 nM
C[C@H]1C[C@@H](NC(=O)CC2CN(C)C2)CN(c2cc(F)c(C#N)c3ncccc23)C1 [Example 59]
75 to 150 nM

API: the following record is the query input.
Q: Under TLR7 (Homo sapiens, UniProt Q9NYK1), report IC50 for C[C@@H]1CN(c2cnc(C#N)c3ncccc23)C[C@H](CNC(=O)[C@@]2(F)CCCNC2)O1 (single isomer, unassigned) [Example 338]
A: < 75 nM
